Catalogue of Ratio values
# Test system: CHO
# protocol-details: Agonist activity at human alpha1L-adrenoceptor expressed in CHO cells co-expressing CRELD1alpha assessed as induction of calcium mobilization after 60 mins by fluorometric imaging plate reader assay relative to control noradrenaline
# Type: cell-based
assay-metric: Ratio

> print(dat)
                                    compound  assay.metric  result.value
 1  CC(C)c1cc(Cl)cc2c1CCC2C1=NCCN1 (stereo unspecified)         Ratio          0.08
 2  CC(C)c1cc(Cl)cc2c1NCCC2C1=NCCN1 (stereo unspecified)         Ratio        0.0028
 3          CC1(C)CCc2c(CC3=NCCN3)cc(Cl)cc21         Ratio          0.12
 4  CC1CCCc2c(CC3=NCCN3)cc(Cl)cc21 (stereo unspecified)         Ratio         0.063
 5             Cc1c(CC2=NCCN2)cc(Cl)cc1C(C)C         Ratio         0.043
 6         CC1(C)CCCc2c(CC3=NCCN3)cc(Cl)cc21         Ratio         0.028
 7              CC(C)c1cc(Cl)cc(CC2=NCCN2)c1         Ratio          0.52
 8  CC(C)c1cc(Cl)cc2c1OCCC2C1=NCCN1 (stereo unspecified)         Ratio         0.014
 9       Clc1cc(CC2=NCCN2)c2c(c1)C1(CCO2)CC1         Ratio         0.088
10       Clc1cc(CC2=NCCN2)c2c(c1)C1(CCC2)CC1         Ratio         0.025
11  CC(C)c1cc(Cl)cc2c1CCCC2C1=NCCN1 (stereo unspecified)         Ratio         0.024
